Data origin, for the record: PubChem BioAssay (NCI)

- System: NCI-H23 lung
- METHOD: NCI-60 one-dose screen, 48 h
- TEST SETTINGS: 10 µM unless noted
This is part of a sample that, as a whole, favours compounds with a hit. Of some 83,000 tested, about 20% had one in any assay. The source made the active and inactive calls. The calls were made as follows: active = growth percent below 10; inactive = the rest.
Outcomes: 1 = active, 0 = inactive

| MOLECULE | TARGET OR SYSTEM | GROUP |
| --- | --- | --- |
| CCOc1cccc2c(NC(C)CCCN(CC)CC)c(C)cnc12 (stereo not drawn) | NCI-H23 lung | 0 |
| CC(=O)OC[C@]12CC[C@@H](C(=O)CBr)[C@@H]1[C@H]1CC[C@@H]3[C@@]4(C)CCCNC(C)(C)[C@@H]4CC[C@@]3(C)[C@]1(C)CC2 | NCI-H23 lung | 1 |
| CC1=CC[C@@H]2C(C)(C)C(=O)CC[C@@]2(C)[C@@H]1COc1ccc2ccc(=O)oc2c1 | NCI-H23 lung | 0 |
| Cc1ccc(Oc2c(/C=N/NC(=O)Cn3c(=O)sc4ccccc43)c(C)nn2-c2ccccc2)cc1 | NCI-H23 lung | 0 |
| CC(=O)Nc1ccc(C=Nc2ccc3ccccc3c2)cc1 | NCI-H23 lung | 0 |
| CC(C)(C)c1cc(C(=O)N2CCC(C(=O)NCCN)CC2)cc(C(C)(C)C)c1 | NCI-H23 lung | 0 |
| COc1ncnc2c(-c3ccccc3)cn(COCc3ccccc3)c12 | NCI-H23 lung | 0 |
| Cc1ccc(N)c(O)c1 | NCI-H23 lung | 0 |
| CC1(C)C(=O)/C(=C\c2ccco2)C[C@]2(C)[C@H]3CC=C4[C@@H]5C[C@](C)(C(=O)O)CC[C@]5(C)CC[C@@]4(C)[C@]3(C)CC[C@@H]12 | NCI-H23 lung | 1 |
| C=C(C)[C@@H]1CC[C@]2(C(=O)OC)CC[C@]3(C)[C@H](CC[C@@H]4[C@@](C)(CCc5nn[nH]n5)[C@H](C(=C)C)CC[C@]43C)[C@@H]12 | NCI-H23 lung | 1 |
| CCCN1CC(c2ccc(OC)c(OC)c2)=C(c2cn(C(=O)OCC)c3ccccc23)C1=O | NCI-H23 lung | 0 |
| CC[C@]12C=CCN3CC[C@@]4(c5ccc(OC)cc5N(C)[C@H]4[C@@](O)(C(=O)OC)[C@@H]1OC(=O)CCC(=O)N[C@H](Cc1c[nH]c4ccccc14)C(=O)OC)[C@@H]32 | NCI-H23 lung | 1 |
| CCOC(=O)c1sc2nc(-c3cc(OC)c(OC)c(OC)c3)nc(N3CCOCC3)c2c1C | NCI-H23 lung | 0 |
| C=C(C)[C@@H]1CC[C@]2(C)[C@H](CC[C@@H]3[C@@H]([C@@](C)(O)CCC=C(C)C)CC[C@]32C)[C@@]1(C)CCC(=O)O | NCI-H23 lung | 1 |
| Nc1ccc(NC(=O)c2ccccc2)c2c1C(=O)c1ccccc1C2=O | NCI-H23 lung | 0 |
| O=[N+]([O-])c1cc([N+](=O)[O-])c(NN=C(c2ccc(O)cc2)c2ccc(O)cc2)cc1Cl | NCI-H23 lung | 1 |
| C[C@H]1[C@H](C)CC[C@]2(C(=O)N3CCN(C)CC3)CC[C@]3(C)C(=CC[C@@H]4[C@@]5(C)C/C(=C/c6ccco6)C(=O)C(C)(C)[C@@H]5CC[C@]43C)[C@H]12 | NCI-H23 lung | 0 |
| COc1ccc(OC)c([N+](=O)[O-])c1C(=O)CNC(C)=O | NCI-H23 lung | 0 |
| Cn1cc(-c2noc(-c3cn(C)c4ncc(Br)cc34)n2)c2cc(Cl)ccc21 | NCI-H23 lung | 0 |
| COc1ncc(-c2ccc3nccc(C#CCCCCC(=O)O)c3c2)cc1NS(=O)(=O)c1ccc(F)cc1F | NCI-H23 lung | 0 |
| COc1ncc(-c2ccc3nc(N)n(-c4ccccc4C(F)(F)F)c(=O)c3c2)cc1S(=O)(=O)Nc1ccc(F)cc1F | NCI-H23 lung | 0 |
| C/C=C/C1OC23CCCCC2C(C#N)(C(=N)O3)C1(C#N)C#N (stereo not drawn) | NCI-H23 lung | 0 |
| CC1Cc2c(Cl)ncnc2N(C)c2ccccc21 (stereo not drawn) | NCI-H23 lung | 0 |
| Cc1cccc([N+](=O)[O-])c1I | NCI-H23 lung | 0 |
| NC(=O)CC1C=CCC1 (stereo not drawn) | NCI-H23 lung | 0 |
| c1ccc(-c2n[nH]c(-c3ccccn3)n2)nc1 | NCI-H23 lung | 0 |
| N/C(=N\c1nc2ccccc2[nH]1)NC(=O)Cc1cccc2ccccc12 | NCI-H23 lung | 0 |
| CN(C)c1cc(NN=C(c2ccc(O)cc2)c2ccc(O)cc2)c([N+](=O)[O-])cc1[N+](=O)[O-] | NCI-H23 lung | 0 |
| Nc1nnc(CSc2nnc3n(Cc4ccccc4)c(=O)c4c5c(sc4n23)CCCC5)s1 | NCI-H23 lung | 0 |
| O=C(NNc1ccc(-c2ccccc2)nn1)c1ccc(F)cc1 | NCI-H23 lung | 0 |
| CN(C)CCCNc1nc(-c2cccc(C(Cl)(Cl)Cl)c2)nc(C(Cl)(Cl)Cl)n1 | NCI-H23 lung | 0 |
| O=C(Nc1ccc(C(=O)/C=C/c2ccc(N3CCOCC3)cc2)cc1)Nc1ccc([N+](=O)[O-])cc1 | NCI-H23 lung | 0 |
| CCCSc1nc(N)nc2nc[nH]c12 | NCI-H23 lung | 0 |
| NC(=S)Cc1ccccc1 | NCI-H23 lung | 0 |
| CC(C)c1ccc(/C=N/N=C(N)N)cc1 | NCI-H23 lung | 0 |
| COc1ccc2nc3c(cc2c1)C(=O)CC(C(F)(F)F)C3 (stereo not drawn) | NCI-H23 lung | 0 |
| CC(C)[N+](C)(C)CC(O)COc1cccc2ccccc12 (stereo not drawn) | NCI-H23 lung | 0 |
| COc1cc(OC)cc(C(=O)Nc2cc(-c3cccnc3)nc(NCCCN3CCOCC3)n2)c1 | NCI-H23 lung | 0 |
